The measurements presented in this section are drawn from ChEMBL document CHEMBL3885861.

- Species on record: Rattus norvegicus
- PROTOCOL_NOTES: Open TG-GATES - Regimen: Single
- Type: toxicity, organism-based, Sprague-Dawley
- Parameters: regimen Single, gender Male, age 6 weeks
- CONDITION_SUMMARY: in vivo, po, 0 mg/kg, 24 h, tissue Blood, route gavage, dose level Control
MEASUREMENT_LABEL: Mono (%)

INSERT INTO measurements (compound, measurement_label, measured) VALUES
  ('CN1C(=O)CN=C(c2ccccc2)c2cc(Cl)ccc21', 'Mono', 5.8),
  ('CCCNC(=O)NS(=O)(=O)c1ccc(Cl)cc1 [CHLORPROPAMIDE]', 'Mono', 2.8),
  ('COC1=CC(=O)C[C@@H](C)[C@]12Oc1c(Cl)c(OC)cc(OC)c1C2=O', 'Mono', 3),
  ('CCOC(=O)CCC(=O)O[C@H]1[C@H](O[C@@H]2[C@@H](C)[C@H](O[C@H]3C[C@@](C)(OC)[C@@H](O)[C@H](C)O3)[C@@H](C)C(=O)O[C@H](CC)[C@@](C)(O)[C@H](O)[C@@H](C)C(=O)[C@H](C)C[C@@]2(C)O)O[C@H](C)C[C@@H]1N(C)C [ERYTHROMYCIN ETHYLSUCCINATE]', 'Mono', 3.4),
  ('CN(C)CCN(Cc1cccs1)c1ccccn1', 'Mono', 2.4),
  ('CN(C)CCCN1c2ccccc2CCc2ccccc21', 'Mono', 2.8),
  ('CC(C)OC(=O)C(C)(C)Oc1ccc(C(=O)c2ccc(Cl)cc2)cc1 [FENOFIBRATE]', 'Mono', 3),
  ('COc1ccc2[nH]c([S+]([O-])Cc3ncc(C)c(OC)c3C)nc2c1 (centres undefined)', 'Mono', 2.6),
  ('CC/C(=C(\c1ccccc1)c1ccc(OCCN(C)C)cc1)c1ccccc1', 'Mono', 4);

###

In this section, each of the molecules is paired with its reported Mono.
- Organism: Rattus norvegicus
- PROTOCOL_NOTES: Open TG-GATES - Regimen: Daily Repeat
- Format: toxicity, organism-based, Sprague-Dawley
- Parameters: regimen Daily Repeat, gender Male, age 6 weeks
- CONDITION_SUMMARY: in vivo, po, 300 mg/kg, 72 h, tissue Blood, route gavage, dose level Middle, time 3 day
MEASUREMENT_LABEL: Mono (%)

INSERT INTO measurements (molecule, measured) VALUES
  ('COc1ccc2[nH]c([S+]([O-])Cc3ncc(C)c(OC)c3C)nc2c1 (stereo not given)', 3.6),
  ('CCOC(=O)CCC(=O)O[C@H]1[C@H](O[C@@H]2[C@@H](C)[C@H](O[C@H]3C[C@@](C)(OC)[C@@H](O)[C@H](C)O3)[C@@H](C)C(=O)O[C@H](CC)[C@@](C)(O)[C@H](O)[C@@H](C)C(=O)[C@H](C)C[C@@]2(C)O)O[C@H](C)C[C@@H]1N(C)C [ERYTHROMYCIN ETHYLSUCCINATE]', 3),
  ('COC1=CC(=O)C[C@@H](C)[C@]12Oc1c(Cl)c(OC)cc(OC)c1C2=O', 3),
  ('CCOc1ccc(NC(=O)CC(C)O)cc1 (stereo not given)', 3.4),
  ('NC(N)=Nc1nc(CSCCC(N)=NS(N)(=O)=O)cs1', 2.6);

###

- Species on record: Rattus norvegicus
- PROTOCOL_NOTES: Open TG-GATES - Regimen: Daily Repeat
- Assay type: toxicity, organism-based, Sprague-Dawley
- Parameters: regimen Daily Repeat, gender Male, age 6 weeks
- CONDITION_SUMMARY: in vivo, po, 100 mg/kg, […], tissue Blood, route gavage, dose level Low, time 7 day
MCHC: recorded values
MEASUREMENT_LABEL: MCHC (%)

INSERT INTO results (compound, measurement_label, measured) VALUES
  ('CCOC(=O)CCC(=O)O[C@H]1[C@H](O[C@@H]2[C@@H](C)[C@H](O[C@H]3C[C@@](C)(OC)[C@@H](O)[C@H](C)O3)[C@@H](C)C(=O)O[C@H](CC)[C@@](C)(O)[C@H](O)[C@@H](C)C(=O)[C@H](C)C[C@@]2(C)O)O[C@H](C)C[C@@H]1N(C)C [ERYTHROMYCIN ETHYLSUCCINATE]', 'MCHC', 33.9),
  ('NC(N)=Nc1nc(CSCCC(N)=NS(N)(=O)=O)cs1', 'MCHC', 35.9),
  ('COC1=CC(=O)C[C@@H](C)[C@]12Oc1c(Cl)c(OC)cc(OC)c1C2=O', 'MCHC', 33.8),
  ('COc1ccc2[nH]c([S+]([O-])Cc3ncc(C)c(OC)c3C)nc2c1 (stereo not given)', 'MCHC', 34.2),
  ('CCOc1ccc(NC(=O)CC(C)O)cc1 (stereo not given)', 'MCHC', 33.5);

###

- Species on record: Rattus norvegicus
- PROTOCOL_NOTES: Open TG-GATES - Regimen: Single
- Assay type: toxicity, organism-based, Sprague-Dawley
- Design: regimen Single, gender Male, age 6 weeks
- CONDITION_SUMMARY: in vivo, po, 10 mg/kg, 9 h, route gavage, dose level Low
MEASUREMENT_LABEL: TERMINAL_BW (g)

INSERT INTO assay_data (compound, measured) VALUES
  ('CN(C)CCN(Cc1cccs1)c1ccccn1', 182.3),
  ('CC1=C(/C=C/C(C)=C/C=C/C(C)=C/CO)C(C)(C)CCC1 [RETINOL]', 196.8),
  ('CN(C)CCCN1c2ccccc2CCc2ccccc21 [IMIPRAMINE]', 198.9),
  ('CN(C)CCCN1c2ccccc2CCc2ccc(Cl)cc21 [CLOMIPRAMINE]', 213);

###

- Species on record: Rattus norvegicus
- PROTOCOL_NOTES: Open TG-GATES - Regimen: Daily Repeat
- Assay type: toxicity, organism-based, Sprague-Dawley
- Parameters: regimen Daily Repeat, gender Male, age 6 weeks
- CONDITION_SUMMARY: in vivo, po, 100 mg/kg, […], tissue Blood, route gavage, dose level Low, time 14 day
MEASUREMENT_LABEL: Eos (%)

INSERT INTO results (molecule, measurement_label, measured) VALUES
  ('NC(N)=Nc1nc(CSCCC(N)=NS(N)(=O)=O)cs1', 'Eos', 0.6),
  ('COC1=CC(=O)C[C@@H](C)[C@]12Oc1c(Cl)c(OC)cc(OC)c1C2=O', 'Eos', 1),
  ('COc1ccc2[nH]c([S+]([O-])Cc3ncc(C)c(OC)c3C)nc2c1 (stereo not given)', 'Eos', 0.8),
  ('CCOc1ccc(NC(=O)CC(C)O)cc1 (stereo not given)', 'Eos', 0.8),
  ('CCOC(=O)CCC(=O)O[C@H]1[C@H](O[C@@H]2[C@@H](C)[C@H](O[C@H]3C[C@@](C)(OC)[C@@H](O)[C@H](C)O3)[C@@H](C)C(=O)O[C@H](CC)[C@@](C)(O)[C@H](O)[C@@H](C)C(=O)[C@H](C)C[C@@]2(C)O)O[C@H](C)C[C@@H]1N(C)C [ERYTHROMYCIN ETHYLSUCCINATE]', 'Eos', 1.2);

###

- Species: Rattus norvegicus
- PROTOCOL_NOTES: Open TG-GATES - Regimen: Daily Repeat
- Format: toxicity, organism-based, Sprague-Dawley
- Parameters: regimen Daily Repeat, gender Male, age 6 weeks
- CONDITION_SUMMARY: in vivo, po, 1000 mg/kg, 72 h, tissue Plasma, route gavage, dose level High, time 3 day
# binarize LDH: threshold 100 IU/L inclusive, high side class 1, low side class 0

INSERT INTO assay_data (compound, label) VALUES
  ('CC(C)OC(=O)C(C)(C)Oc1ccc(C(=O)c2ccc(Cl)cc2)cc1 [FENOFIBRATE]', 'class 1'),
  ('CCOC(=O)CCC(=O)O[C@H]1[C@H](O[C@@H]2[C@@H](C)[C@H](O[C@H]3C[C@@](C)(OC)[C@@H](O)[C@H](C)O3)[C@@H](C)C(=O)O[C@H](CC)[C@@](C)(O)[C@H](O)[C@@H](C)C(=O)[C@H](C)C[C@@]2(C)O)O[C@H](C)C[C@@H]1N(C)C [ERYTHROMYCIN ETHYLSUCCINATE]', 'class 1'),
  ('COc1ccc2[nH]c([S+]([O-])Cc3ncc(C)c(OC)c3C)nc2c1 (stereo unspecified)', 'class 1'),
  ('COC1=CC(=O)C[C@@H](C)[C@]12Oc1c(Cl)c(OC)cc(OC)c1C2=O', 'class 1'),
  ('NC(N)=Nc1nc(CSCCC(N)=NS(N)(=O)=O)cs1', 'class 1'),
  ('CCOc1ccc(NC(=O)CC(C)O)cc1 (stereo unspecified)', 'class 0');

###

- Species on record: Rattus norvegicus
- PROTOCOL_NOTES: Open TG-GATES - Regimen: Daily Repeat
- Format: toxicity, organism-based, Sprague-Dawley
- Parameters: regimen Daily Repeat, gender Male, age 6 weeks
- CONDITION_SUMMARY: in vivo, po, 1000 mg/kg, […], tissue Blood, route gavage, dose level High, time 28 day
MEASUREMENT_LABEL: Hb (g/dL)

INSERT INTO results (molecule, unit_name, measured) VALUES
  ('NC(N)=Nc1nc(CSCCC(N)=NS(N)(=O)=O)cs1', 'g/dL', 15.7),
  ('COc1ccc2[nH]c([S+]([O-])Cc3ncc(C)c(OC)c3C)nc2c1 (stereo not given)', 'g/dL', 12),
  ('COC1=CC(=O)C[C@@H](C)[C@]12Oc1c(Cl)c(OC)cc(OC)c1C2=O', 'g/dL', 14.6),
  ('CCOC(=O)CCC(=O)O[C@H]1[C@H](O[C@@H]2[C@@H](C)[C@H](O[C@H]3C[C@@](C)(OC)[C@@H](O)[C@H](C)O3)[C@@H](C)C(=O)O[C@H](CC)[C@@](C)(O)[C@H](O)[C@@H](C)C(=O)[C@H](C)C[C@@]2(C)O)O[C@H](C)C[C@@H]1N(C)C [ERYTHROMYCIN ETHYLSUCCINATE]', 'g/dL', 15.2),
  ('CCOc1ccc(NC(=O)CC(C)O)cc1 (stereo not given)', 'g/dL', 14.3);
